- measured_on: T1, TP-27 (also: biotinylated, site not given here)
- T1 construct: also called TP-27 peptide
- T1 peptide: ADDQIAQSLCGEDLI
- assay_summary: indirect ELISA, biotinylated 15-mer on streptavidin plate, hybridoma supernatant
Where no end group is shown, it is not given here.
test_readout: binding result

Entry ACI-7062-401A2-Ab2 (antibody, IgG1, V domains shown, also called 401A2C6; clone 2) VH: DVQLVESGGGLVQPGGSRRLSCAASGFTFSRFGMHWVRQAPEKGLEWVAYIRSGSDIIYYADSVKGRFTISRDNPENTLFLQMTSLRSEDTAMYYCARSGTTVPFDYWGQGTSLTVSS VL: DIVMTQSPSSLAMSVGQKVTMSCKSSQSLLNSGDQKNYLAWYQQKPGQSPELLLYFASTRASGVPDRFIGSGSGTDFSLTISSVQAEDLADYFCQQHYSIPLTFGAGTKLELKR : reported binding result = ? no binding

Entry ACI-7062-412E12-Ab1 (antibody, IgG1, V domains shown, also called 412E12A2; clone 10) VH: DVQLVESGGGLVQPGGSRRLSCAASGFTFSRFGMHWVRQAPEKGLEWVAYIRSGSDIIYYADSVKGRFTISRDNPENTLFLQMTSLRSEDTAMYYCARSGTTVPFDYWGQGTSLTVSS VL: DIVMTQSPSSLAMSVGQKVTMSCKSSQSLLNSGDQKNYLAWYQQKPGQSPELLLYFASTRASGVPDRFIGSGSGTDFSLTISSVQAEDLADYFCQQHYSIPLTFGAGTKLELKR : reported binding result = ? no binding

Entry ACI-7062-406E3-Ab2 (antibody, IgG2a, V domains shown, also called 406E3G10; clone 6) VH: QVTLKESGPAILQPSQTLSLTCSFSGFSLTTYGIGVGWIRQPSGKGLEWLAHIWWNDNKYYNTALKSRLTVSKDTSNNQVFLKIASVDTADTATYYCARVYGNLYYFAYWGQGTTLTVSS VL: DVLMTQTPLSLPVSLGDRASISCRSSQSIVHRSGNTYLEWYLQKPGQSPKLLIYKVSNRFSGVPDRFSGSGSGTDFTLKISRVEAEDLGVYYCFQGSHVPTFGAGTKLELKR : reported binding result = ? no binding
